Provide the recorded pIC50 for the entries that follow.
Test system: HCC38
Assay: Cytotoxicity against human HCC38 cells assessed as reduction in cell viability incubated for 3 days by cell-titer-Glo reagent based assay
Type: functional
Settings: HCC38, 72 h
API: returns pIC50 as number; meaning -log10 of concentration in mol/L.

Exam item: Record request: pIC50 value, item O=C(Nc1ccc(I)cc1)c1ccc([N+](=O)[O-])o1
Marked response: 5.06

Exam item: One more compound: O=C(Nc1ccc(N2CCN(Cc3ccccc3F)CC2)cc1)c1ccc([N+](=O)[O-])o1
Marked response: 5.72

Exam item: Thanks! And O=C(Nc1ccc(N2CCOCC2)c(Cl)c1)c1ccc([N+](=O)[O-])o1 ?
Marked response: 5.70

Exam item: What do you have for CC1CCN(c2ccc(NC(=O)c3ccc([N+](=O)[O-])o3)cc2)CC1 ?
Marked response: 5.60

Exam item: Cool, now O=C(Nc1ccc(N2CCOCC2)cc1)c1ccc([N+](=O)[O-])o1
Marked response: 5.51

Exam item: What do we get for O=C(Nc1ccc(N2CCCCC2)c(Cl)c1)c1ccc([N+](=O)[O-])o1 ?
Marked response: 5.42
